# TARGET_OR_TEST_SYSTEM: PDGFRB (Homo sapiens, UniProt P09619)
# Construct: Kinases are expressed as either kinase domains or full length constructs; made in house
# Sequence (P09619 33-1106, species assumed): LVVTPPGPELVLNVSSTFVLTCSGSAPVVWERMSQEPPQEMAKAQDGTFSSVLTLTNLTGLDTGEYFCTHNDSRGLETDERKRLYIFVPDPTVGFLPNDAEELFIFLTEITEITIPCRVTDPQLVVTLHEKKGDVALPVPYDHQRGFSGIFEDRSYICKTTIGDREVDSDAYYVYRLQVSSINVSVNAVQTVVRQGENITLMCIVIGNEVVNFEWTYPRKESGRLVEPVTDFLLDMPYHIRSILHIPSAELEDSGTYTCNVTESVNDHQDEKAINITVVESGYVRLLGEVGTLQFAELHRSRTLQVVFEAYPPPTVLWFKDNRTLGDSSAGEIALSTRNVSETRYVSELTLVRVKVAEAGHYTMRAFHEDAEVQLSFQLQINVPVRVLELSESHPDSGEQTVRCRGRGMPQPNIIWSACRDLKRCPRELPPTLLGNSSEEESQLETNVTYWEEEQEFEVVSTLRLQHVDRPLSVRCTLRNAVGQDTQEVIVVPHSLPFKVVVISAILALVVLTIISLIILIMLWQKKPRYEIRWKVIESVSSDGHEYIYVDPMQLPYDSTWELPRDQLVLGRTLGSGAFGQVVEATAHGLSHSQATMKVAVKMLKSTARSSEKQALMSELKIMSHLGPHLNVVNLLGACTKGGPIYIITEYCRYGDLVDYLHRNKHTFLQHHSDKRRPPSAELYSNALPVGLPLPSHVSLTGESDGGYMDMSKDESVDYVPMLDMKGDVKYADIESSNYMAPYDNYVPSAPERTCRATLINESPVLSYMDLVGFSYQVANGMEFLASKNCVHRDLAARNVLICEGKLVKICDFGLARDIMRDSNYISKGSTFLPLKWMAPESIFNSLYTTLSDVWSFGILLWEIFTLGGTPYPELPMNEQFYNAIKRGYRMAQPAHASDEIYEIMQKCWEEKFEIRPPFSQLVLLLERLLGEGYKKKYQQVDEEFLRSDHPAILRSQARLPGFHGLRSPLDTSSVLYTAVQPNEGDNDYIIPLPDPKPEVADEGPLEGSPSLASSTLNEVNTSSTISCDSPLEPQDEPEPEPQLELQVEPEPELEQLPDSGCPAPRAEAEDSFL
# METHOD_DESCRIPTION: Kinase inhibition assay (33P transfer), PDGFRB
# Assay type: biochemical
# CONDITION_PARAMETERS: read-out: PDGFRB-1
READOUT_KIND: IC50

Parameters: items (list). Returns: IC50 for each item.
1. COc1cc(Nc2ncnc(Nc3ccc4cn[nH]c4c3)n2)cc(OC)c1OC [Compound 70]
2. COc1cc(Nc2ncnc(-n3c(NCc4ccccn4)nc4ccccc43)n2)cc(OC)c1OCCn1ccnn1 [Compound 942]
3. COCCOc1ccc(Nc2ncnc(Nc3ccc(C)c(O)c3)n2)cc1OCCOC [Compound 125]
4. COc1cc(Nc2ncnc(-n3ncc4ccccc43)n2)cc(OC)c1OC [Compound 240]
5. COc1cc(Nc2ncnc(-c3cccnc3NCc3ccccc3F)n2)cc(OC)c1OC [Compound 1087]
6. COc1cc(Nc2ncnc(-n3c(Nc4ccc(F)cc4)nc4ccccc43)n2)cc(OC)c1OC [Compound 387]
7. COc1ccccc1Nc1ncnc(Nc2cc(OC)c(OC)c(OC)c2)n1 [Compound 90]
8. COc1cc(Nc2ncnc(Nc3ccc4c(ccn4Cc4ccccc4)c3)n2)cc(OC)c1OC [Compound 178]

stdout:
1: < 1020 nM; 2: < 707 nM; 3: < 906 nM; 4: < 1060 nM; 5: 5190 to 7570 nM; 6: < 821 nM; 7: < 1040 nM; 8: 4970 to 7250 nM
